# Tested on: HEK-293T
# experiment.summary: Incucyte cell viability with HEK293T; note: filed as whole numbers so only -1 and 0 and 1 occur
# Type: toxicity, cell-based
# settings: human, 12 h, 10 µM, compound concentration 10 uM, replicate number 1, timepoint 12 hours

[
  {
    "compound": "Cl.Clc1ccc(CCCOCCCN2CCCCC2)cc1 [PITOLISANT HYDROCHLORIDE]",
    "Growth Rate": 0
  },
  {
    "compound": "CNC(=O)c1ccc(Nc2ncc(C(F)(F)F)c(NCc3nccnc3N(C)S(C)(=O)=O)n2)cc1",
    "Growth Rate": 0
  },
  {
    "compound": "CCCOc1ccc([C@H]2[C@H](C(=O)O)[C@@H](c3ccc4c(c3)OCO4)CN2CC(=O)Nc2c(CC)cccc2CC)cc1",
    "Growth Rate": 0
  },
  {
    "compound": "Cl.O=C(O)c1cc(-c2ccc(C3CCNCC3)cc2)c2ccc(-c3ccc(C(F)(F)F)cc3)cc2c1",
    "Growth Rate": 0
  },
  {
    "compound": "C=CC(=O)Nc1ccc2[nH]c(=O)n(C3CCN(Cc4ccc(-c5nc6cc[nH]c(=O)c6cc5-c5ccccc5)cc4)CC3)c2c1",
    "Growth Rate": 0
  },
  {
    "compound": "COc1ccc(S(=O)(=O)c2cc(OC)ccc2S(=O)(=O)c2ccc([C@H](C)NS(C)(=O)=O)cc2)cc1",
    "Growth Rate": 1
  },
  {
    "compound": "O=C([O-])c1cc2ccccc2c(Cc2c(O)c(C(=O)[O-])cc3ccccc23)c1O.[Na+].[Na+]",
    "Growth Rate": 1
  },
  {
    "compound": "C[C@]1(C(=O)N(CCCC(=O)O)Cc2cccc(Cl)c2)CCN1C(=O)c1csc2ccccc12",
    "Growth Rate": 1
  },
  {
    "compound": "COc1cc2ncnc(Nc3ccc(F)c(Cl)c3)c2cc1OCCCN1CCOCC1",
    "Growth Rate": 0
  },
  {
    "compound": "O=C(Nc1ccc(Oc2ccc(F)cc2)cc1)N1CCc2ncccc2[C@H]1c1ccc(F)cc1",
    "Growth Rate": 0
  },
  {
    "compound": "COC(=O)C1=C(C)NC(C)=C(C(=O)OCCCN2CCC(c3ccccc3)(c3ccccc3)CC2)[C@H]1c1cccc([N+](=O)[O-])c1",
    "Growth Rate": 0
  },
  {
    "compound": "COc1cc(Nc2nccc(-c3cnn4nc(OC)ccc34)n2)cc(C(F)(F)F)c1",
    "Growth Rate": 0
  },
  {
    "compound": "Cl.Clc1cccc(COc2cncc(N3CCNCC3)n2)c1",
    "Growth Rate": 0
  },
  {
    "compound": "COC(=O)/C=C/c1cccc(N(Cc2ccc(-c3ccc(N(C)C)cc3)cc2)C(=O)C2CCCCC2)c1",
    "Growth Rate": 0
  },
  {
    "compound": "C#Cc1cccc(Nc2ncnc3cc(OCCOC)c(OCCOC)cc23)c1",
    "Growth Rate": 0
  },
  {
    "compound": "O=C(c1cc2c(cc1F)OC(c1ccc(F)cc1)(c1ccc(Cl)cc1Cl)O2)N1CCOCC1 (centres undefined)",
    "Growth Rate": 0
  },
  {
    "compound": "CC1(C)CCC(C)(C)c2cc(C(=O)Nc3ccc(C(=O)O)cc3)ccc21",
    "Growth Rate": 1
  },
  {
    "compound": "CC(C)c1noc(N2CCC(COc3ccc(-c4ccc(S(C)(=O)=O)cc4)nc3)CC2)n1",
    "Growth Rate": 0
  },
  {
    "compound": "CCOC(=O)c1cc2cc(-c3cc(C(=O)NCc4ccc(C(=O)O)cc4)nn3C)ccc2[nH]1",
    "Growth Rate": 1
  },
  {
    "compound": "Cl.Cl.Cl.c1ccc(N2CCN(Cc3nc4ccccc4[nH]3)CC2)nc1",
    "Growth Rate": 1
  },
  {
    "compound": "O=C(O)C1CN(Cc2ccc(-c3nc4cc(Cc5ccccc5F)ccc4s3)c(F)c2)C1",
    "Growth Rate": 0
  },
  {
    "compound": "O=C(O)CC/C=C\\C[C@@H]1CO[C@H](c2ccccc2Cl)O[C@@H]1c1ccccc1O",
    "Growth Rate": 1
  },
  {
    "compound": "CCc1nn(CCCN2CCN(c3cccc(Cl)c3)CC2)c(=O)n1CCOc1ccccc1.Cl [NEFAZODONE HYDROCHLORIDE]",
    "Growth Rate": 0
  },
  {
    "compound": "Cc1csc(NC(=O)c2cc(F)cc(Oc3cncnc3)c2)n1",
    "Growth Rate": 0
  }
]
